Origin of the recorded values: PubChem BioAssay

Target: Short transient receptor potential channel 4 (Mus musculus)
Test: calcium flux activators in TRPC4/5HT1a cells, counter-screen for TRPC4 activator project, cell-based, second counter screen, HEK293 TRPC4/5HT1a, Fluo-4 (AID 434977)
Conditions: Fluo-4 calcium flux, at 10 µM; stronger effect = higher value
Calls of active or inactive are those of the source.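 How the source made its calls: active means calcium signal rise above buffer-control mean plus 5 SD in both duplicates, and also a hit in the primary screen; inactive means the rest.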
Readout Label: activation

Here are 6 compounds together with their reported answers.
Challenge: I have this compound here, COc1ccc(OCC(=O)NC2CCCN(Cc3ccc(Cl)cc3)C2)cc1 (stereo unspecified) , and I need its recorded activation.
Response given: inactive

Challenge: Value lookup for activation; key = Cc1nn(-c2ccccc2)c2[nH]c(C(F)(F)F)cc(=O)c12
Response given: inactive

Challenge: Please report the recorded activation for Cc1ccc(OCCn2c(C)nc3ccccc32)cc1 .
Response given: inactive

Challenge: Query: activation; subject: CCOC(=O)C1(Cc2cccc(OC)c2)CCN(Cc2ccc(OC)c(O)c2)CC1
Response given: inactive

Challenge: Consider the compound Cc1cc(OCC(=O)Nc2ccc(N3CCN(C)CC3)cc2)ccc1Cl and give its measured activation.
Response given: inactive

Challenge: Requested read-out: activation. Entry: CNC(=S)N1CCN(C(c2ccccc2)c2ccccc2)CC1
Response given: inactive

Continuing:
Challenge: Which activation is listed for Oc1ccc(CN2CCc3ccccc3C2)c2cccnc12 ?
Response given: inactive

Challenge: Consider the compound shown here: CN(C)c1ccc(C(=S)N2CCN(c3ccc([N+](=O)[O-])cc3)CC2)cc1 What is its recorded activation?
Response given: inactive

Challenge: # input compound: Cc1cc(=O)oc2cc(NC(=S)NCc3ccccn3)ccc12 ; wanted: its activation
Response given: inactive

Challenge: Could you share which activation value was measured for CCOC(=O)c1oc2ccccc2c1CN1CCCCC1 ?
Response given: inactive

Challenge: Sample CCN1CCN(c2ccc(S(=O)(=O)N3CCCCC3)cc2NC(=O)CC(C)c2ccccc2)CC1 (stereo unspecified) — what was its activation?
Response given: inactive

* * *

Experiment: serotonin-gated TRPC4 signal block – cell-based, second counter screen, HEK293 TRPC4/5HT1a, Fluo-4, counter-screen for TRPC4 inhibitor project, confirmation (AID 434978);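 on outcome: serotonin given first at submaximal then at maximal dose after compound preincubation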
Details: Fluo-4 calcium flux, at 10 µM, serotonin added to trigger calcium flux
Activity calls are given as the source filed them.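 Rule for the calls: active = primary screen active whose calcium signal fell more than 3 SD beyond the full-serotonin control mean in both duplicate plates; inactive = the rest.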
One label from this list, please: Yes = active, No = inactive

Challenge: Dear all, I need the recorded test outcome for CC(=O)C1=C(S(=O)(=O)c2ccc(C)cc2)CS(=O)(=O)C1 , thank you.
Response given: Yes

Challenge: Query: recorded result category for O=C(CSc1nnc(-c2ccccc2)o1)c1ccc2c(c1)OCCO2 in this test
Response given: No

Challenge: Write down the call the test reported for this compound. Item: CCN1CCCC1CNC(=O)c1cc2c(OC)cccc2[nH]1 (stereo not drawn)
Response given: No

Challenge: What call does the record list for O=C(Nc1ccc(Oc2ccccc2)nc1)C1CCN(Cc2ccccc2)CC1 ?
Response given: Yes

Challenge: Kindly provide the recorded test outcome for the following compound: CCOC(=O)C1=C(NC(=S)NC(=O)c2ccccc2)c2ccccc2CC1(C)C
Response given: No

Challenge: What call does the record list for Clc1ccccc1CSc1nc2ccncc2[nH]1 ?
Response given: No

Challenge: What did this assay record as the result for Oc1c(Br)cc(Br)c(/C=N/n2c(-c3ccccc3)n[nH]c2=S)c1Br ?
Response given: No

Challenge: Call for entry Cc1nn(-c2ccccc2)c(Cl)c1CN(C(=O)CCl)c1ccc(Cl)cc1 :
Response given: Yes

Challenge: Answer briefly: the call reported for CCCCN(CC)CCNC(=O)c1cc2c(=O)n(C)c3ccccc3c2s1 in this assay.
Response given: No

Challenge: Which outcome was entered for the compound C/C(N)=C(/C#N)C(=O)COC(=O)C1CCC(C(C)(C)C)CC1 (stereo not drawn) in this test?
Response given: No

Challenge: Could you please tell me the result logged for CCn1c(CN2CCN(Cc3ccc(C)cc3)C(CCO)C2)nc2ccccc21 (stereo not drawn) in this assay?
Response given: No

Challenge: Call for entry CN(C)CCCN(C(=O)CCc1ccccc1)c1nc2ccc(F)cc2s1 :
Response given: No

Challenge: For O=S(=O)(NCCSc1nnc(-c2ccco2)n1-c1ccccc1)c1ccccc1 , what call appears in the results of this test?
Response given: No

Challenge: Test call, this compound: O=C(NC1CCCCC1)N1CCN(C(c2ccccc2)c2ccccc2)CC1
Response given: No

Challenge: For CCCCCC[N+](C)(C)CC/C=C1/c2ccccc2Sc2ccc(Cl)cc21 , which call appears in the assay record?
Response given: Yes

Challenge: Look up the recorded call for Nc1c2c(nc3ccccc13)N(c1ccccc1)CC2 in this test.
Response given: Yes

Challenge: Dear colleague, could you share the recorded outcome for COc1ccc(/C=N/NC(=O)c2ccc(F)cc2)cc1CN1CCc2cc(OC)c(OC)cc2C1C (stereo not drawn) when you have a moment?
Response given: No

Challenge: Name the outcome recorded for Cc1cccn2c(=O)c(/C=N/O)c(N3CCCC3)nc12 in the assay.
Response given: Yes

Challenge: // outcome(item) with item = COc1ccc(CCNC(=O)C2CCN(C(=O)c3ccc(C(C)(C)C)cc3)CC2)cc1
Response given: No

Challenge: Please indicate how the test categorized CCCCn1c(NCCO)nc2ccccc21 .
Response given: Yes

Challenge: Answer briefly: the call reported for CC1Cc2ccccc2N1C(=O)CSc1nc2c(c(=O)n(C)c(=O)n2C)n1Cc1ccc(F)cc1 (stereo not drawn) in this assay.
Response given: No

Challenge: Dear all, I need the recorded test outcome for OCc1ccccc1CNCc1ccccc1 , thank you.
Response given: Yes

Challenge: For Cc1ccc(C(CNS(=O)(=O)c2ccc([N+](=O)[O-])cc2)N2CCN(C)CC2)cc1 (stereo not drawn) , what call appears in the results of this test?
Response given: No

* * *

Biological target: Short transient receptor potential channel 4 (Mus musculus)
Assay: blockers of DAMGO-evoked TRPC4 calcium flux – cell-based, second round, Fluo4, HEK293 TRPC4beta/mu-opioid, 1 µM, confirmation (AID 2637);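 on inhibition: percent of integrated ratio relative to wells lacking test compound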
Settings: at 1 µM; stronger effect = higher value
Activity calls are given as the source filed them.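 The calls were made as follows: active = calcium signal ratio cut to more than 3 SD under the fully stimulated control mean yet still positive, in both repeats and the primary screen; inactive = the rest.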
Readout Label: inhibition

Challenge: Requested read-out: inhibition. Entry: CC(C)(C)n1cnc2cc(NCc3ccc(Br)cc3)ccc21
Response given: inactive

Challenge: GET /values?readout=inhibition&item= COc1cc2c(cc1OC)C(C)N(C(=O)C(NC(=O)c1ccccc1)C(C)C)CC2 (stereo unspecified)
Response given: inactive

Challenge: Look up inhibition for this molecule: c1ccc(CNc2c3ccccc3nc3ccccc23)cc1
Response given: 60% (active)

Challenge: Look at this molecule and give its reported inhibition. CCC(=O)N1CCc2cc(Br)cc(S(=O)(=O)NCCCN(CC)Cc3ccccc3)c21
Response given: inactive

Challenge: Entry COc1cc(OC)c(OC)cc1CCC(C)NCCC(c1ccccc1)c1ccccc1 (stereo unspecified) has what inhibition?
Response given: inactive

Let us examine a further case.
Challenge: Would you kindly share the measured inhibition for O=[N+]([O-])c1cc(C(F)(F)F)ccc1N1CCCNCC1 ?
Response given: inactive

* * *

Target: Short transient receptor potential channel 6 (Mus musculus)
Experiment: TRPC6 opening by TRPC4 activator hits – cell-based, HEK293, membrane potential dye, duplicate, selectivity assay for TRPC4 activator project, confirmation (AID 434950)
Details: HEK293 TRPC6, membrane potential fluorescence, at 10 µM; activation
Activity calls are given as the source filed them.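 The calls were made as follows: active = membrane potential signal rise above negative control mean plus 3 SD in both duplicates, also active in the earlier TRPC4 screen; inactive = the rest.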
Readout Label: outcome

Sample answers from the record:
Challenge: Query (compound): COc1cc(C(F)(F)F)nc2c(Br)c(C(C)(C)C)nn12 ; field requested: outcome
Response given: inactive

Challenge: If you can, please state the reported outcome value of CCCCN1/C(=C/c2ccc3ccccc3[n+]2CC)Sc2ccccc21 .
Response given: inactive

Challenge: Could you tell me which outcome is on file for CCc1ccc(C(=O)c2cnc3ccc(OC)cc3c2N2CCN(CC)CC2)cc1 ?
Response given: inactive

Challenge: Which outcome reading was recorded for the compound Cc1cc(Nc2ccc3c(c2)OCCO3)c2cc(Cl)ccc2n1 ?
Response given: inactive

New cases:
Challenge: Quick one: outcome of Clc1ccc2nc(CN3CCCc4ccccc43)cn2c1 ?
Response given: inactive

Challenge: Which outcome is listed for O=C1CC2(CCN(S(=O)(=O)c3ccccc3F)CC2)Oc2ccccc21 ?
Response given: inactive

Challenge: Give the measured outcome of Cc1ccc(Oc2ccccc2/C=N/O)cc1 .
Response given: inactive

Challenge: outcome lookup needed for N=c1sccn1CC(=O)Nc1ccccc1Oc1ccccc1 , thanks.
Response given: inactive

Challenge: Report outcome for Cc1cc(NC(=O)CSCC(=O)Nc2ccc(Cl)c(C(F)(F)F)c2)no1 please.
Response given: inactive

Challenge: State the recorded outcome for this entry: CCOc1ccc(Nc2nc(Cc3nnc(SCC(=O)c4ccc(C)cc4)o3)cs2)cc1
Response given: inactive

Challenge: Record request: outcome value, item CCOc1cccc(CN2CCCC(C(=O)c3cccc(C(F)(F)F)c3)C2)c1O (stereo unspecified)
Response given: inactive
